Entry source: ChEMBL document CHEMBL1649265

system: Mycoplasma genitalium; assay: Antibacterial activity against Mycoplasma genitalium G37 by broth dilution method; type: functional; settings: Mycoplasmoides genitalium, read-out: MIC
readout: MIC (µg/mL)

Here is how some compounds turned out for MIC.
compound | study_target | MIC (µg/mL)
COc1c(N2C[C@@H]3CCCN[C@@H]3C2)c(F)cc2c(=O)c(C(=O)O)cn(C3CC3)c12 | Mycoplasma genitalium | 0.063
N[C@@H]1CN(c2c(F)cc3c(=O)c(C(=O)O)cn([C@@H]4C[C@@H]4F)c3c2Cl)CC12CC2 [SITAFLOXACIN ANHYDROUS] | Mycoplasma genitalium | 0.063
CCn1cc(C(=O)O)c(=O)c2cc(F)c(N3CCNCC3)cc21 | Mycoplasma genitalium | 0.032
C[C@H]1c2cccc(O)c2C(=O)C2=C(O)[C@]3(O)C(=O)C(C(N)=O)=C(O)[C@@H](N(C)C)[C@@H]3[C@@H](O)[C@@H]21.O | Mycoplasma genitalium | 0.063
C[C@H]1COc2c(N3CCN(C)CC3)c(F)cc3c(=O)c(C(=O)O)cn1c23.C[C@H]1COc2c(N3CCN(C)CC3)c(F)cc3c(=O)c(C(=O)O)cn1c23.O | Mycoplasma genitalium | 1

1. COc1c(N2CCNC(C)C2)c(F)cc2c(=O)c(C(=O)O)cn(C3CC3)c12 (centres undefined)
2. O=C(O)c1cn(C2CC2)c2cc(N3CCNCC3)c(F)cc2c1=O
Query :: Would you kindly point out which of 1 and 2 has the smaller MIC figure? // return label of chosen record
Result :: 2

P. CN(C)c1ccc(O)c2c1C[C@H]1C[C@H]3[C@H](N(C)C)C(O)=C(C(N)=O)C(=O)[C@@]3(O)C(O)=C1C2=O
Q. CN(C)[C@@H]1C(O)=C(C(N)=O)C(=O)[C@@]2(O)C(O)=C3C(=O)c4c(O)cccc4[C@@](C)(O)[C@H]3C[C@@H]12
Query :: Would you kindly point out which of P and Q has the smaller MIC figure? // return label of chosen record
Result :: P

----------
tested on: Mycoplasma genitalium; experiment: Antibacterial activity against Mycoplasma genitalium M6287 by broth dilution method; assay type: functional; conditions: Mycoplasmoides genitalium
readout: MIC (µg/mL)

Here is how some compounds turned out for MIC.
compound | MIC, µg/mL
C[C@H]1c2cccc(O)c2C(=O)C2=C(O)[C@]3(O)C(=O)C(C(N)=O)=C(O)[C@@H](N(C)C)[C@@H]3[C@@H](O)[C@@H]21.O | 0.063
C[C@H]1COc2c(N3CCN(C)CC3)c(F)cc3c(=O)c(C(=O)O)cn1c23.C[C@H]1COc2c(N3CCN(C)CC3)c(F)cc3c(=O)c(C(=O)O)cn1c23.O | 0.125
CN(C)c1ccc(O)c2c1C[C@H]1C[C@H]3[C@H](N(C)C)C(O)=C(C(N)=O)C(=O)[C@@]3(O)C(O)=C1C2=O | 0.063
N[C@@H]1CN(c2c(F)cc3c(=O)c(C(=O)O)cn([C@@H]4C[C@@H]4F)c3c2Cl)CC12CC2 [SITAFLOXACIN ANHYDROUS] | 0.008

1. COc1c(N2C[C@@H]3CCCN[C@@H]3C2)c(F)cc2c(=O)c(C(=O)O)cn(C3CC3)c12
2. CN(C)[C@@H]1C(O)=C(C(N)=O)C(=O)[C@@]2(O)C(O)=C3C(=O)c4c(O)cccc4[C@@](C)(O)[C@H]3C[C@@H]12
3. COc1c(N2CCNC(C)C2)c(F)cc2c(=O)c(C(=O)O)cn(C3CC3)c12 (centres undefined)
Query :: List from greatest to least MIC. # answer = labels listed in requested order
Result :: 2, 3, 1
(2: 0.063 µg/mL, 3: 0.031 µg/mL, 1: 0.016 µg/mL)

----------
test system: Mycoplasma genitalium; experiment: Antibacterial activity against Mycoplasma genitalium M2300 by broth dilution method; type: functional; conditions: Mycoplasmoides genitalium
readout: MIC (µg/mL)

compound | MIC (µg/mL)
O=C(O)c1cn(C2CC2)c2cc(N3CCNCC3)c(F)cc2c1=O [CIPROFLOXACIN] | 0.063
CCn1cc(C(=O)O)c(=O)c2cc(F)c(N3CCNCC3)cc21 [NORFLOXACIN] | 0.001

a. CN(C)[C@@H]1C(O)=C(C(N)=O)C(=O)[C@@]2(O)C(O)=C3C(=O)c4c(O)cccc4[C@@](C)(O)[C@H]3C[C@@H]12 [TETRACYCLINE]
b. COc1c(N2C[C@@H]3CCCN[C@@H]3C2)c(F)cc2c(=O)c(C(=O)O)cn(C3CC3)c12 [MOXIFLOXACIN]
c. C[C@H]1COc2c(N3CCN(C)CC3)c(F)cc3c(=O)c(C(=O)O)cn1c23.C[C@H]1COc2c(N3CCN(C)CC3)c(F)cc3c(=O)c(C(=O)O)cn1c23.O [LEVOFLOXACIN]
Query :: List from greatest to least MIC. # answer = labels listed in requested order
Result :: c, a, b

----------
system: Mycoplasma genitalium; test: Antibacterial activity against Mycoplasma genitalium M6280 by broth dilution method; format: functional; settings: Mycoplasmoides genitalium
readout: MIC (µg/mL)

Here is how some molecules turned out for MIC.
molecule | readout | unit_name | obs_value
CN(C)[C@@H]1C(O)=C(C(N)=O)C(=O)[C@@]2(O)C(O)=C3C(=O)c4c(O)cccc4[C@@](C)(O)[C@H]3C[C@@H]12 | MIC | µg/mL | 0.063
O=C(O)c1cn(C2CC2)c2cc(N3CCNCC3)c(F)cc2c1=O | MIC | µg/mL | 0.063
C[C@H]1c2cccc(O)c2C(=O)C2=C(O)[C@]3(O)C(=O)C(C(N)=O)=C(O)[C@@H](N(C)C)[C@@H]3[C@@H](O)[C@@H]21.O | MIC | µg/mL | 0.063
N[C@@H]1CN(c2c(F)cc3c(=O)c(C(=O)O)cn([C@@H]4C[C@@H]4F)c3c2Cl)CC12CC2 [SITAFLOXACIN ANHYDROUS] | MIC | µg/mL | 0.008

P. COc1c(N2C[C@@H]3CCCN[C@@H]3C2)c(F)cc2c(=O)c(C(=O)O)cn(C3CC3)c12
Q. CN(C)c1ccc(O)c2c1C[C@H]1C[C@H]3[C@H](N(C)C)C(O)=C(C(N)=O)C(=O)[C@@]3(O)C(O)=C1C2=O
R. C[C@H]1COc2c(N3CCN(C)CC3)c(F)cc3c(=O)c(C(=O)O)cn1c23.C[C@H]1COc2c(N3CCN(C)CC3)c(F)cc3c(=O)c(C(=O)O)cn1c23.O
S. COc1c(N2CCNC(C)C2)c(F)cc2c(=O)c(C(=O)O)cn(C3CC3)c12 (centres undefined)
Query :: List from greatest to least MIC. # answer = labels listed in requested order
Result :: R, Q, S, P
(R: 0.125 µg/mL, Q: 0.063 µg/mL, S: 0.031 µg/mL, P: 0.016 µg/mL)

----------
tested on: Mycoplasma genitalium; assay: Antibacterial activity against Mycoplasma genitalium M2300 by broth dilution method; type: functional; conditions: Mycoplasmoides genitalium
readout: MIC (µg/mL)

a. C[C@H]1c2cccc(O)c2C(=O)C2=C(O)[C@]3(O)C(=O)C(C(N)=O)=C(O)[C@@H](N(C)C)[C@@H]3[C@@H](O)[C@@H]21.O
b. COc1c(N2CCNC(C)C2)c(F)cc2c(=O)c(C(=O)O)cn(C3CC3)c12 (centres undefined)
Query :: Compare a and b by numeric MIC and name the larger one. // return label of chosen record
Result :: a

----------
system: Mycoplasma genitalium; experiment: Antibacterial activity against Mycoplasma genitalium M2321 by broth dilution method; assay type: functional; settings: Mycoplasmoides genitalium
readout: MIC (µg/mL)

Here is how some compounds turned out for MIC.
compound | readout | unit_name | obs_value
O=C(O)c1cn(C2CC2)c2cc(N3CCNCC3)c(F)cc2c1=O | MIC | µg/mL | 0.063
CCn1cc(C(=O)O)c(=O)c2cc(F)c(N3CCNCC3)cc21 | MIC | µg/mL | 0.001
C[C@H]1c2cccc(O)c2C(=O)C2=C(O)[C@]3(O)C(=O)C(C(N)=O)=C(O)[C@@H](N(C)C)[C@@H]3[C@@H](O)[C@@H]21.O | MIC | µg/mL | 0.063
N[C@@H]1CN(c2c(F)cc3c(=O)c(C(=O)O)cn([C@@H]4C[C@@H]4F)c3c2Cl)CC12CC2 [SITAFLOXACIN ANHYDROUS] | MIC | µg/mL | 0.008
CN(C)c1ccc(O)c2c1C[C@H]1C[C@H]3[C@H](N(C)C)C(O)=C(C(N)=O)C(=O)[C@@]3(O)C(O)=C1C2=O | MIC | µg/mL | 0.063

1. C[C@H]1COc2c(N3CCN(C)CC3)c(F)cc3c(=O)c(C(=O)O)cn1c23.C[C@H]1COc2c(N3CCN(C)CC3)c(F)cc3c(=O)c(C(=O)O)cn1c23.O
2. CN(C)[C@@H]1C(O)=C(C(N)=O)C(=O)[C@@]2(O)C(O)=C3C(=O)c4c(O)cccc4[C@@](C)(O)[C@H]3C[C@@H]12
3. COc1c(N2CCNC(C)C2)c(F)cc2c(=O)c(C(=O)O)cn(C3CC3)c12 (centres undefined)
4. COc1c(N2C[C@@H]3CCCN[C@@H]3C2)c(F)cc2c(=O)c(C(=O)O)cn(C3CC3)c12
Query :: // smallest MIC at index 0, largest at the end # answer = labels listed in requested order
Result :: 4, 3, 2, 1
(4: 0.016 µg/mL, 3: 0.031 µg/mL, 2: 0.063 µg/mL, 1: 0.125 µg/mL)
